# Assay Summary: Size and polydispersity of lipid nanoparticles by dynamic light scattering
# Type: physicochemical
# Measurement Context: LNP cationic lipid/DSPC/cholesterol/PEG-lipid 50:10:38.5:1.5 with mRNA
Kindly supply the reported Polydispersity index (PDI) values for the records listed here.

Req: Find the recorded Polydispersity index (PDI) belonging to `CCCCCCCCC(CCCCCCCC)COC(=O)CCCCCN1CCC(O)(CN(CCCCCC(=O)OCC(CCCCCCCC)CCCCCCCC)C2CCC2)CC1` and report it.
Resp: 0.16

Req: Using the record for CCCCCCCCC(CCCCCC)COC(=O)CCCCCN(C)CC1(O)CCN(CCCCCC(=O)OCC(CCCCCC)CCCCCCCC)CC1 (centres unmarked) , report its Polydispersity index (PDI).
Resp: 0.045

Req: Sample `CCCCCCCCC(CCCCCCCC)COC(=O)CCCCCN(CCCCCC(=O)OCC(CCCCCCCC)CCCCCCCC)CC1(O)CCN(C)CC1` — what was its Polydispersity index (PDI)?
Resp: 0.114

Req: # input molecule: `CCCCCCCCC(CCCCCCCC)COC(=O)CCCCCN(CCCCCC(=O)OCC(CCCCCCCC)CCCCCCCC)CC1(O)CCN(C(=O)CCCCN(C)C)CC1` ; wanted: its Polydispersity index (PDI)
Resp: 0.28

Req: Data request, read-out Polydispersity index (PDI), for `CCCCCCCCC(CCCCCCCC)COC(=O)CCCCCN(CCCCCC(=O)OCC(CCCCCCCC)CCCCCCCC)CC1(O)CCN(C(=O)CCCN(C)C)CC1`
Resp: 0.257

Req: Can you share its Polydispersity index (PDI)? I mean this molecule: CCCCCCCCC(CCCCCC)COC(=O)CCCCCN(CCCCCC(=O)OCC(CCCCCC)CCCCCCCC)CCN1CCC(O)(CN(C)C)CC1 (centres unmarked)
Resp: 0.139

Req: Which Polydispersity index (PDI) is listed for CCCCCCCCC(CCCCCC)COC(=O)CCCCCN1CCC(O)(CN(CCCCCC(=O)OCC(CCCCCC)CCCCCCCC)C2CCCCC2)CC1 (centres unmarked) ?
Resp: 0.049

Req: I am curious: what Polydispersity index (PDI) value has been reported for `CCCCCCCCC(CCCCCCCC)COC(=O)CCCCCN(CCCCCC(=O)OCC(CCCCCCCC)CCCCCCCC)CC1(O)CCN(C(=O)CN(C)C)CC1` ?
Resp: 0.248

----------
# Assay Summary: Size and polydispersity of lipid nanoparticles by dynamic light scattering
# Type: physicochemical
# Measurement Context: LNP cationic lipid/DSPC/cholesterol/PEG-lipid 50:10:38.5:1.5 with mRNA
Kind request: treat 100 nm as inclusive, so Size (nm) at 100 nm or higher is condition met, anything lower is condition not met.

Req: Is Size (nm) at least 100 nm? Consider CCCCCCCCC(CCCCCC)COC(=O)CCCCCN(C)CC1(O)CCN(CCCCCC(=O)OCC(CCCCCC)CCCCCCCC)CC1 (centres unmarked) [Compound 11]
Resp: condition not met

Req: Decide: Size (nm) of CCCCCCCCC(CCCCCCCC)COC(=O)CCCCCN(CCCCCC(=O)OCC(CCCCCCCC)CCCCCCCC)CC1(O)CCN(CCC)CC1 [Compound 6] >= 100 nm?
Resp: condition not met

Req: Could you please find out whether CCCCCCCCC(CCCCCC)COC(=O)CCCCCN1CCC(O)(CN(CCCCCC(=O)OCC(CCCCCC)CCCCCCCC)C2CCCCC2)CC1 (centres unmarked) [Compound 13] has Size (nm) that meets 100 nm or exceeds it?
Resp: condition met

Req: Kindly determine if Size (nm) recorded for CCCCCCCCC(CCCCCC)COC(=O)CCCCCN(CCCCCC(=O)OCC(CCCCCC)CCCCCCCC)CCN1CCC(O)(CN(C)CC)CC1 (centres unmarked) [Compound 10] is above or exactly 100 nm.
Resp: condition met

Req: Reported Size (nm) at or above 100 nm? CCCCCCCCC(CCCCCCCC)COC(=O)CCCCCN(CCCCCC(=O)OCC(CCCCCCCC)CCCCCCCC)CC1(O)CCN(C(=O)CCCN(C)C)CC1 [Compound 1]
Resp: condition not met

Req: # check: Size (nm) of CCCCCCCCC(CCCCCC)CC(=O)OCC(CCCCN1CCC(O)(CN(C)C)CC1)COC(=O)CC(CCCCCC)CCCCCCCC (centres unmarked) [Compound 15] is greater than or equal to 100 nm
Resp: condition not met

Req: Reported Size (nm) at or above 100 nm? CCCCCCCCC(CCCCCCCC)COC(=O)CCCCCN(CCCCCC(=O)OCC(CCCCCCCC)CCCCCCCC)CC1(O)CCN(C(=O)CN(C)C)CC1 [Compound 3]
Resp: condition not met
